Origin of values: PubChem BioAssay (Tox21)

protocol-text: qHTS assay to identify small molecule antagonists of the peroxisome proliferator-activated receptor delta (PPARd) signaling pathway - cell viability counter screen (AID 743213); further: nearly all actives have a fitted effect of over 50% in size
settings: PPARd-bla HEK293H viability, CellTiter-Glo luminescence, 17 h; series mostly up to 62 µM
Inconclusive results are not listed. The source made the active and inactive calls. The call rests on the fitted dose curve; in most records, active means well fitted cell-killing curve with a large enough effect in the repeat runs; inconclusive means weak or mixed curves; inactive means no such curve, though single readings can be large or run the other way.
Permitted responses: active, inactive

# count of solved cases: 5
O=C1C(Cl)C(CCl)CN1c1cccc(C(F)(F)F)c1 (centres undefined); inactive
C=CC(=O)OCC(C)C; inactive
O=C(NCc1cccnc1)Nc1ccc([N+](=O)[O-])cc1; inactive
C[C@@H]1CC[C@H]2[C@@H](C)C(=O)O[C@@H]3O[C@@]4(C)CC[C@@H]1[C@]32OO4; inactive
CC/C(=N\OC/C=C/Cl)C1=C(O)CC(C2CCOCC2)CC1=O (centres undefined); inactive

Problem: Could you check what this test reported for "O=C(N[C@H](c1ccccc1)[C@@H]1CN2CCC1CC2)c1c(Cl)ccc(C(F)(F)F)c1Cl" ?
Solution: inactive

Problem: Repeat for the following compound: "COc1nn(C(=O)NS(=O)(=O)c2ccccc2OC(F)(F)F)c(=O)n1C"
Solution: inactive

----------
protocol-text: qHTS assay to identify small molecule antagonists of the estrogen related receptor (ERR) signaling pathway from Tox21 library (AID 1224848); further: nearly all actives have a fitted effect of over 50% in size
settings: ERR reporter cell line, luciferase antagonist mode, 18 h; series mostly up to 92.4 µM
Excerpt: U.S. Tox21 Program National Center for Advancing Translational Sciences [NCATS] NIH Chemical Genomics Center [NCGC] U.S. Environmental Protection Agency [EPA] National Institutes of Environmental Health Sciences [NIEHS] National Toxicology Program [NTP] U.S. Food and Drug Administration [FDA] Tox21 Assay Overview: Estrogen related receptors (ERRs), the first orphan nuclear receptors discovered, play an important role in the control of cellular energy metabolism. […]
Results filed as inconclusive are left out. The source made the active and inactive calls. Calls follow the shape of the dose curve; as a rule, active = well fitted inhibition curve with a large enough effect in the repeat runs; inconclusive = weak or mixed curves; inactive = no such curve, though single readings can be large or run the other way.
Permitted responses: t for active, f for inactive

IC(I)=C(I)I; t
COC(=O)C(Br)CBr (stereo not drawn); f
CO/C=C(/C(=O)OC)c1ccccc1COc1cccc(C(F)(F)F)n1; t
O=[N+]([O-])c1ccc(F)c([N+](=O)[O-])c1; t
CCCCN=C=O; f

Problem: Could you check what this test reported for "COc1cc(Cl)c(OC)cc1Cl" ?
Solution: f

Problem: Repeat for the following compound: "Nc1nc(=S)[nH][nH]1"
Solution: f

Problem: Repeat for the following compound: "N#Cc1ccc(Cl)cc1"
Solution: f

----------
system: Thyrotropin receptor (Homo sapiens) (UniProt P16473)
Sequence (P16473 whole entry, looked up): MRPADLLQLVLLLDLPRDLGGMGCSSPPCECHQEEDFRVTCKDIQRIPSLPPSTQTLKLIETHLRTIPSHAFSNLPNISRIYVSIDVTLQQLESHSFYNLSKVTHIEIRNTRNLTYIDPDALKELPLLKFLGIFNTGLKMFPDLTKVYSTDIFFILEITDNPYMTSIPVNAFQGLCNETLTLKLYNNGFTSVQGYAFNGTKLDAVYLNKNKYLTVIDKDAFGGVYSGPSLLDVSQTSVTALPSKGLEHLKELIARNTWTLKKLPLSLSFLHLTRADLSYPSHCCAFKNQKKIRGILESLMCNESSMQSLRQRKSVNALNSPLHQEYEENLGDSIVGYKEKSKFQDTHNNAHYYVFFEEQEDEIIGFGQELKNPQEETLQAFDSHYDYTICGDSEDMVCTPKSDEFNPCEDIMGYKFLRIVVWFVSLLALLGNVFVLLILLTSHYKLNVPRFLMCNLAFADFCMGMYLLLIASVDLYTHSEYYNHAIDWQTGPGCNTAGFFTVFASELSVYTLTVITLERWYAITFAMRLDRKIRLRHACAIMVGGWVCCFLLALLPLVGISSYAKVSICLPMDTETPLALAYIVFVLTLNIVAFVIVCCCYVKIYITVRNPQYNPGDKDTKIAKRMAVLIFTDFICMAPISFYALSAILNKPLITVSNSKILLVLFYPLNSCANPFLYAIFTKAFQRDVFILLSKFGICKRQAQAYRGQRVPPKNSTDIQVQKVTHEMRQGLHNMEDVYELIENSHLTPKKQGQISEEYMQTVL
protocol-text: qHTS assay to identify small molecule agonists of the thyroid stimulating hormone receptor (TSHR) signaling pathway (AID 1224843); further: nearly all actives have a fitted effect of over 45% in size
settings: TSHR-HEK293 cells, cAMP HTRF, agonist mode, 30 min; series mostly up to 92.4 µM
Records with an inconclusive call do not appear. Activity calls are given as the source filed them. The call rests on the fitted dose curve.
Permitted responses: yes for active, no for inactive

Problem: Could you check what this test reported for "S=C=NCc1ccccc1" ?
Solution: no

Problem: Repeat for the following compound: "C=C(C#N)CCC#N"
Solution: no

Problem: Repeat for the following compound: "C=CC(=O)OCCCCO"
Solution: no

Problem: Repeat for the following compound: "Clc1cc(Cl)c(Cl)c(Cl)c1"
Solution: no

Problem: Repeat for the following compound: "CCCCc1c(C)nc(NCC)nc1OS(=O)(=O)N(C)C"
Solution: no

Problem: Repeat for the following compound: "O=C(O)c1ccccc1C(=O)Nc1cccc2ccccc12"
Solution: no

Problem: Repeat for the following compound: "COC(=O)C(Cl)C(=O)OC"
Solution: no

Problem: Repeat for the following compound: "COc1nn(C(=O)NS(=O)(=O)c2ccccc2OC(F)(F)F)c(=O)n1C"
Solution: no

Problem: Repeat for the following compound: "C=CC(=O)OC"
Solution: no

Problem: Repeat for the following compound: "C=CCOC(C)=O"
Solution: no

Problem: Repeat for the following compound: "N#CCC#N"
Solution: no

Problem: Repeat for the following compound: "N#Cc1cc(I)c(O)c(I)c1"
Solution: no

Problem: Repeat for the following compound: "CCC(Br)(CC)C(=O)NC(N)=O"
Solution: no

Problem: Repeat for the following compound: "Sc1ccccc1Cl"
Solution: no

Problem: Repeat for the following compound: "CCCCN(N=O)C(=N)N[N+](=O)[O-]"
Solution: no
